test system: OVCAR-3 ovarian; experiment: NCI-60 one-dose screen, 48 h (100 = growth as untreated, 0 = no growth, -100 = all killed); details: 10 µM unless noted
This is part of a sample that, as a whole, favours compounds with a hit. Of some 83,000 tested, about 20% had one in any assay.
parameter: growth (%)
Answer in %, number only, no unit symbol.

smilesString | measuredTarget | unitInfo | growth
O=C1NC(=O)/C(=C/c2c(-c3ccccc3)nc3sc(COc4ccccc4)nn23)S1 | OVCAR-3 ovarian | % | 110

API: value(readout= growth, system= OVCAR-3 ovarian, query= `NS(=O)(=O)c1ccc(-c2cc(-c3nnc(SCC(=O)Nc4ccc(C(=O)/C=C/c5ccc(Cl)cc5)cc4)n3-c3ccccc3)c3ccccc3n2)cc1` ) 101

Enter reported growth observed with OVCAR-3 ovarian for `COc1cc(OC)cc(-c2ccc(-c3ccc(C(=N)N)o3)o2)c1` 25.7

###

Test system: T-47D breast
Assay: NCI-60 one-dose screen, 48 h
Conditions: 10 µM unless noted
Protocol: Growth inhibition of the T-47D human tumor cell line is measured as a screen for anti-cancer activity. Cells are grown in 96 well plates and exposed to the test compound for 48 hours. Compounds are tested at a single concentration, which is 10^-5 M for most compounds. The reported endpoint is percent growth (GI% or GIPRCNT), where numbers from 0 - 100% represent growth inhibition, and numbers from -100% - 0 represent cell death. For example, a value of 40 represents 60% growth inhibition. […]
About 83,000 compounds went through this panel and 20% of them were active in at least one assay; those are over-represented in the sample as a whole. Activity calls are given as the source filed them. The calls were made as follows: active = growth percent below 10; inactive = the rest.
Could you please pick one outcome from this set? active, inactive

Completed entries (count: 10):
compound | discreteLabel
COc1ccc(/C=C/c2ccc3ccccc3n2)c(OC)c1 | inactive
CO[C@H](C(=O)[C@@H](O)[C@@H](C)O)[C@@H]1Cc2cc3cc(O[C@H]4C[C@@H](O[C@H]5C[C@@H](O)[C@H](O)C(C)O5)[C@H](O)C(C)(O)O4)cc(O)c3c(O)c2C(=O)[C@H]1O[C@H]1C[C@@H](O[C@H]2C[C@@H](O[C@H]3C[C@@H](OC)[C@H](O)C(C)O3)[C@@H](O)C(C)O2)[C@H](O)C(C)O1 (stereo partly specified) | inactive
NC1(CO)COC(c2ccccc2)OC1 (stereo unspecified) | inactive
N#Cc1nc(-c2ccccc2)oc1S(=O)(=O)N1CCN(c2ccc(F)cc2)CC1 | inactive
CC[C@]12C=CCN3CC[C@@]4(c5ccc(OC)cc5N(C)[C@H]4[C@@](O)(C(=O)OC)[C@@H]1OC(=O)CCC[P+](c1ccccc1)(c1ccccc1)c1ccccc1)[C@@H]32 | active
COc1ccc2c(c1)/C(=N/c1n[nH]c(=S)s1)C(=O)N2 | inactive
CNC1=C([N+](=O)[O-])C(c2ccc(OC)cc2)C(C#N)=C(c2cccs2)O1 (stereo unspecified) | inactive
COC(=O)C(Cc1ccccc1)NC(=O)c1ccc(NC(=O)c2[nH]c(C)c(Cl)c2Cl)c(OC(C)C)c1 (stereo unspecified) | inactive
N[C@H]1CCC[C@@H]1NCCCCN1C(=O)c2cccc3cc([N+](=O)[O-])cc(c23)C1=O | inactive
NC(=O)c1c(NC(=O)c2cccc(C(F)(F)F)c2)sc2c1CCC(=O)C2 | active

Hello, I am checking results. What call was entered for `Cc1ccc(CNc2c3ccccc3nc3ccccc23)cc1` ? inactive

Which outcome was assigned to CN(Cc1ccccc1)c1nc(Cl)c(C2CC(c3ccccc3)=NN2c2ccccc2)s1 (stereo unspecified) in this test? inactive

Call for entry `COc1cc(C(=O)c2c(-c3ccccc3)oc3c(OC)cccc23)cc(OC)c1OC` : inactive

Fill in: this test's call for O=C(NC1CC(F)C1)c1cc2cccnc2n1-c1ccc(Cl)c(Cl)c1 (stereo unspecified) is ___ inactive

State the result this test recorded for `CC(=O)c1ccc(Nc2nccc(-c3ccc4ccccc4c3)n2)cc1` . inactive

Could you check what this test reported for `COC(=O)c1ccc(NC(=O)Nc2ccc(C(=O)OC)cc2)cc1` ? inactive

Dear colleague, could you share the recorded outcome for `O=C(CSc1nc(-c2ccccc2)cc(=O)[nH]1)Nc1nc(-c2ccccc2)cs1` when you have a moment? inactive
